target or test system: DHODH (Homo sapiens (Human), UniProt Q02127)
Sequence (Q02127 whole entry): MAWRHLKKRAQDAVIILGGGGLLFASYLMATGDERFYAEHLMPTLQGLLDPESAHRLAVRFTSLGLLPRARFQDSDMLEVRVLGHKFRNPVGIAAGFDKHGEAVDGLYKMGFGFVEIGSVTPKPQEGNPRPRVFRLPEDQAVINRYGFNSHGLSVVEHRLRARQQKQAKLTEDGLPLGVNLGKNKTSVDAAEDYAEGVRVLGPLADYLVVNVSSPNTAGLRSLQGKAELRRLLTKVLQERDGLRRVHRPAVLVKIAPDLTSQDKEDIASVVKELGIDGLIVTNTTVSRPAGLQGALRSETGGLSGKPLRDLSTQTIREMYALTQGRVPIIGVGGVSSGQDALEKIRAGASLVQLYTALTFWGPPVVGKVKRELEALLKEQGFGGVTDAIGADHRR
test name: DHODH activity assay (coupled enzyme assay, DCIP reduction, absorbance at 610 nm)
Type: biochemical
test settings: compound at 10 uM; read-out: inh @ 10 uM hDHODH (%)
Can you tell me inhibition at 10 µM for the items I'm about to list?
Dear colleague, please return just the value in %, with no unit written.

[in] Lab note: need inhibition at 10 µM with DHODH (Homo sapiens (Human), UniProt Q02127) for entry `Cc1cc(C(=O)O)c2nc(-c3ccc(-c4ccc(OCc5cccnc5)cc4)cc3)[nH]c2c1` , please look it up.
[out] 89.9

[in] Queued: `O=C(O)c1cccc2[nH]c(-c3ccc(-c4ccccc4OCc4ccccc4)cc3)nc12`
[out] 72

[in] Also `Cc1cc(C(=O)O)c2nc(-c3c(F)c(F)c(-c4ccc(OCc5ccccc5)cc4)c(F)c3F)[nH]c2c1` ?
[out] 101

[in] Entry to check: `Cc1cc(C(=O)O)c2[nH]c(-c3c(F)c(F)c(-c4cccc(F)c4)c(F)c3F)nc2c1`
[out] 97

[in] Same for `Cc1cc(C(=O)O)c2[nH]c(-c3ccc(-n4c(C)ccc4C)cc3)nc2c1`
[out] 108

[in] Try this compound next: `Cc1cc(C(=O)O)c2nc(-c3c(F)c(F)c(-n4c(C)ccc4C)c(F)c3F)[nH]c2c1`
[out] 111

[in] Please answer likewise for `O=C(O)c1cc(Br)cc2[nH]c(-c3ccc(-c4ccccc4)cc3)nc12`
[out] 96.7

[in] Can you check `Cc1cc(C(=O)O)c2[nH]c(-c3c(F)c(F)c(-c4ccccc4OCc4ccccc4)c(F)c3F)nc2c1` next?
[out] 104

[in] Please do the same for `O=C(O)c1cc(F)cc2nc(-c3ccc(-c4ccc(F)cc4F)cc3F)[nH]c12` as well.
[out] 82

[in] Similarly, `Cc1cc(C(=O)O)c2[nH]c(-c3ccc(-c4c(F)cccc4F)cc3)nc2c1` ?
[out] 100

[in] Check `Cc1cc(C(=O)OCCO)c2[nH]c(-c3c(F)c(F)c(-c4ccccc4)c(F)c3F)nc2c1` too.
[out] 69.1

[in] Entry `Cc1cc(C(=O)O)c2nc(-c3ccc(-c4ccc(Oc5ccccn5)cc4)cc3)[nH]c2c1` please
[out] 86

###

target or test system: DHODH (Homo sapiens (Human), UniProt Q02127)
test name: DHODH activity assay (coupled enzyme assay, DCIP reduction, absorbance at 610 nm)
Type: biochemical
test settings: compound at 10 uM; read-out: inh @ 10 uM hDHODH (%)
Class fulfilled: inhibition at 10 µM at least 80%. Class not fulfilled: inhibition at 10 µM below 80%.

[in] Could you verify whether the entry Cc1cc(C(N)=O)c2nc(-c3c(F)c(F)c(-c4ccccc4)c(F)c3F)[nH]c2c1 [I102] shows inhibition at 10 µM of no less than 80%?
[out] fulfilled

[in] Can you handle COc1cc(-c2ccccc2)ccc1-c1nc2c(C(=O)O)cc(C)cc2[nH]1 [I46] next?
[out] fulfilled

[in] Now try Cc1cc(C(=O)O)c2[nH]c(-c3ccc(Oc4ccccc4)cc3)nc2c1 [I67] .
[out] not fulfilled

[in] Also Cc1cc(C(=O)O)c2nc(-c3ccc(-c4cccc(OCc5ccccc5)c4)cc3)[nH]c2c1 [I115] ?
[out] fulfilled
